Where do the numbers come from? From paper PMC2756588.

Target: T1, Myo5, Q04439
T1 sequence (Q04439 1072-1160, looked up): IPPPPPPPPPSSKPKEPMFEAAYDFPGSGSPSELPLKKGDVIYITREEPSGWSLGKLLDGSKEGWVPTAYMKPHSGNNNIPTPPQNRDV
Assay: SPOT array
Details: median of control spots 471
Mark class 1 only for SPOT intensity values smaller than 3; exact matches and larger values are class 0.

Use the examples below as a reference point.
[
  {
    "binder": "RKLRTVPGVPLIHLT",
    "qualitative label": "class 1"
  },
  {
    "binder": "KRRTSLFPWLHKPGI",
    "qualitative label": "class 1"
  },
  {
    "binder": "FSRRQSMDIPSKNRN",
    "qualitative label": "class 0"
  },
  {
    "binder": "QLLNPNRRAPRRPLS",
    "qualitative label": "class 0"
  },
  {
    "binder": "LTRRFPFLFPFDTRM",
    "qualitative label": "class 1"
  }
]

Query :: Check if SPOT intensity falls below 3 for VATSTSPKLPPRGKQ .
Result :: class 1

Query :: Check if SPOT intensity falls below 3 for KIRRSSLMIPNPQQF .
Result :: class 0
